- Assayed system: UniProt:P12527
- Protocol text: 5-lipoxygenase Inhibitory activity against rat polymorphonuclear leucocytes using 5-HETE
Property label: Change (%)

Example entries and their recorded answers appear below.
compound=C/C(=C1\CCCc2c(C)ccnc21)c1ccc(C)cc1 assayed_system=UniProt:P12527 value_measured=7
compound="Cc1cnc2c(c1)CCCC2Sc1ccccc1 (stereo unspecified)" assayed_system=UniProt:P12527 value_measured=-50
compound=C/C(=C1/CCCc2c(C)ccnc21)c1ccc(C)cc1 assayed_system=UniProt:P12527 value_measured=1
compound=Cc1ccnc2c1CCC/C2=C/c1ccnc2ccccc12 assayed_system=UniProt:P12527 value_measured=-5

(a) Cc1ccnc2c1CCC/C2=C\c1ccncc1
(b) Cc1ccc(/C=C2\c3ncc(C)cc3CCC2(C)C)cc1
Lookup: Identify the item whose Change is the smaller number: a or b State your choice using its label.
Found: a

(I) Cc1ccc(S(=O)(=O)NC2CCCc3cc(C)cnc32)cc1 (stereo unspecified)
(II) Cc1ccc(C(=O)C2CCCc3c(C)ccnc32)cc1 (stereo unspecified)
Lookup: Response body: label of entry with the larger Change; valid values I , II . Response format: the label of the selected entry.
Found: I

(P) Cc1ccc(C(=O)C2CCCc3c(C)ccnc32)cc1C (stereo unspecified)
(Q) Cc1ccnc2c1CCC/C2=C/c1ccncc1
Lookup: Returns: the label, P or Q , whose recorded Change is the lower number. When you have decided, please share the label of that item.
Found: P
(P: -50%, Q: -17%)

* * *

- Assayed system: Polyunsaturated fatty acid 5-lipoxygenase (Rattus norvegicus, UniProt P12527)
- Protocol text: 5-lipoxygenase inhibitory activity against rat polymorphonuclear leucocytes from female wistar rat, by using 5-HETE.
Property label: IC50 (µM)
Supply the numeric figure in µM, leaving out any unit text.

Lookup: Fill blank: measured IC50 of the compound Cc1ccc(C(O)c2nc3c(cc2C)CCCCC3)cc1 (stereo unspecified) is ____.
Found: 27

* * *

- Assayed system: Polyunsaturated fatty acid 5-lipoxygenase (Rattus norvegicus) (UniProt P12527)
- Protocol text: Inhibition of 5-lipoxygenase pathway in rat polymorphonuclear assay, by ability to inhibit formation of LTB4 AT 10 uM
Property label: Change (%)

Field: example entries. Status: answers known.
compound=Cc1ccc([C@H](O)[C@@H]2CCCc3cc(C)cnc32)cc1 property_label=Change value_measured=-48
compound=Cc1ccc(C(=O)c2nc3c(cc2C)CCCCC3)cc1 property_label=Change value_measured=-52
compound=Cc1ccc([C@@H](O)[C@@H]2CCCCc3cccnc32)cc1 property_label=Change value_measured=-37

(I) Cc1ccc(C(O)c2ccc3c(n2)CCCCC3)cc1 (stereo not drawn)
(II) Cc1ccc(/C=C2\c3ncc(C)cc3CCC2(C)C)cc1
(III) COc1cccc(C(O)c2nc3c(cc2C)CCCCC3)c1 (stereo not drawn)
(IV) Cc1ccc([C@@H](O)[C@H]2c3ncc(C)cc3CCC2(C)C)cc1
(V) Cc1cc2c(nc1C(O)c1ccc(C(F)(F)F)cc1)CCCCC2 (stereo not drawn)
Lookup: Arrange these compounds by their Change, starting with the largest number. Reply: labels, ordered per the request.
Found: II, V, IV, I, III

* * *

- Assayed system: Polyunsaturated fatty acid 5-lipoxygenase (Rattus norvegicus)
- Protocol text: Inhibition of 5-lipoxygenase pathway in rat polymorphonuclear assay (inhibition of 5-HETE formation)
Property label: Change (%)

See these solved cases before continuing.
compound=Cc1ccc([C@@H](O)[C@@H]2CCCc3cc(C)cnc32)cc1 property_label=Change value_measured=-27
compound="Cc1cc2c(nc1C(O)c1cccc(Cl)c1)CCCCC2 (stereo unspecified)" property_label=Change value_measured=-42
compound=Cc1ccc([C@@H](O)[C@@H]2CCCCc3cccnc32)cc1 property_label=Change value_measured=-37

(I) Cc1ccc(C(O)Cc2ccc3c(n2)CCCCC3)cc1 (stereo unspecified)
(II) Cc1ccc(Cc2nc3c(cc2C)CCCCC3)cc1
(III) Cc1cnc2c(c1)CCCC2[S+]([O-])c1ccccc1 (stereo unspecified)
Lookup: Give the ascending ranking of the items by reported Change. // respond by listing labels in the order requested
Found: II, I, III
(II: -37%, I: -14%, III: 50%)

* * *

Entries with reported IC50 on Polyunsaturated fatty acid 5-lipoxygenase (Rattus norvegicus) (UniProt P12527)
Property label: IC50 (µM)

(1) CC(c1cc2ccccc2s1)N(O)C(N)=O (centres undefined)
(2) NC1=NN(c2cccc(C(F)(F)F)c2)CC1 [BW-755C]
Lookup: Pick the one with the larger IC50: 1 vs 2 Lab log: write the label of the selected item as the result.
Found: 2

* * *

Each item that follows carries a reported Change.
- Test system: Rattus norvegicus
- Protocol text: Antiinflammatory activity by rat adjuvant arthritis assay at 30 mg/kg peroral administration (uninjected paw at day 16).
- Condition label: route oral
Give the value, in units of %, as a plain number.

Field: example entries. Status: answers known.
compound="Cc1ccc(C(=O)C2CCCc3c(C)ccnc32)cc1 (stereo unspecified)" value_measured=19
compound=COc1cc(/C=C2\CCCc3cc(C)cnc32)ccc1O value_measured=-1
compound="Cc1cc2c(nc1C(O)c1cccc(Cl)c1)CCCCC2 (stereo unspecified)" value_measured=30
compound=Cc1ccc([C@H](O)[C@@H]2CCCCc3cccnc32)cc1 value_measured=-32
compound="Cc1cnc2c(c1)CCCC2[S+]([O-])c1ccccc1 (stereo unspecified)" value_measured=13

Lookup: For the compound COC(c1ccc(C)cc1)c1nc2c(cc1C)CCCCC2 (stereo unspecified) , what Change is on record?
Found: -26

* * *

- Assayed system: Polyunsaturated fatty acid 5-lipoxygenase (Rattus norvegicus) (UniProt P12527)
- Sequence (whole entry): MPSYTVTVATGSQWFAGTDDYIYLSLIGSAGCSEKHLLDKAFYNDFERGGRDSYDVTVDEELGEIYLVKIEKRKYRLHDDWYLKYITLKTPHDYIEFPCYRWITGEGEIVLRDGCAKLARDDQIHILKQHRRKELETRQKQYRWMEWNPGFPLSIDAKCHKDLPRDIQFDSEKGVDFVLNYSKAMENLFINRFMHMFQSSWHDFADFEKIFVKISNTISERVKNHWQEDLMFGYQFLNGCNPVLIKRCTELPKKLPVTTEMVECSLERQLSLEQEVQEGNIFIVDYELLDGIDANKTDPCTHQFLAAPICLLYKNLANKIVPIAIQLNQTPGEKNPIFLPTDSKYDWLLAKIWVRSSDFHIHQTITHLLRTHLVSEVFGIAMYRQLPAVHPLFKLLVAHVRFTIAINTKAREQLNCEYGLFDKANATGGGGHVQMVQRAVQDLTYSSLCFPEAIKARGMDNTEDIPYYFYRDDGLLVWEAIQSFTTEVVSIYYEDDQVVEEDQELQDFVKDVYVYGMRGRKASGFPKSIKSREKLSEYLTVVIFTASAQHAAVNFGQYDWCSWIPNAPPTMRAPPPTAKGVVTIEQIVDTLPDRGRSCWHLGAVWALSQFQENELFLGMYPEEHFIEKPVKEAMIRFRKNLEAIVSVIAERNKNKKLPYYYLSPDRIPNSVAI
- Protocol text: Inhibition of 5-lipoxygenase pathway in rat polymorphonuclear assay, by ability to inhibit formation of LTB4 AT 10 uM
Property label: Change (%)

Here is how some compounds turned out for Change.
compound="Cc1cc2c(nc1C(O)c1cccc(Cl)c1)CCCCC2 (stereo unspecified)" u=% value_measured=-51
compound="Cc1ccc(C(O)c2nc3c(cc2C)CCCCC3)cc1 (stereo unspecified)" u=% value_measured=-43
compound=Cc1ccnc2c1CCC/C2=C/c1ccnc2ccccc12 u=% value_measured=-23
compound="Cc1cnc2c(c1)CCCC2[S+]([O-])c1ccccc1 (stereo unspecified)" u=% value_measured=13
compound="Cc1ccc(C(O)c2nc3c(cc2C)CCCC3)cc1 (stereo unspecified)" u=% value_measured=-23

(A) Cc1cccc(C(=O)C2CCCc3cccnc32)c1 (stereo unspecified)
(B) C/C(=C1/CCCc2c(C)ccnc21)c1ccc(C)cc1
Lookup: Between these two entries, A and B , state which has the higher Change. Write the label of whichever entry you select.
Found: A
(A: -11%, B: -18%)

(A) C/C(=C1\CCCc2c(C)ccnc21)c1ccc(C)cc1
(B) Cc1cnc2c(c1)CCCC2S(=O)(=O)c1ccccc1 (stereo unspecified)
(C) Cc1ccnc2c1CCC/C2=C\c1ccncc1
Lookup: Rank the 3 compounds: largest Change first, smallest last. Use the labels to give the requested order.
Found: B, C, A

(I) Cc1ccc(C(O)c2nc3c(cc2C)CCC3)cc1 (stereo unspecified)
(II) Cc1cc2c(nc1C(O)c1ccccc1)CCCCC2 (stereo unspecified)
(III) Cc1ccc(S(=O)(=O)NC2CCCc3cc(C)cnc32)cc1 (stereo unspecified)
(IV) Cc1ccnc2c1CCC/C2=C/c1ccncc1
Lookup: // ranking: key=Change, reverse=True Reply with the item labels sorted in the order that was asked for.
Found: III, II, IV, I
(III: 2%, II: -4%, IV: -25%, I: -43%)

* * *

- Assayed system: Polyunsaturated fatty acid 5-lipoxygenase (Rattus norvegicus, UniProt P12527)
- Protocol text: 5-lipoxygenase inhibitory activity against rat polymorphonuclear leucocytes from female wistar rat, by using LTB4.
Property label: pIC50
# pIC50 = -log10(concentration in molar units)

Lookup: State the recorded pIC50 for this entry: Cc1ccc(C(O)c2nc3c(cc2C)CCCCC3)cc1 (stereo unspecified)
Found: 4.85
